Molecular target: T1, Recombinant MBP-mutCALR Type 1 fusion protein (human)
T1 construct: custom made at Cepter; also called recombinant mutCALR protein
Experiment: SPR, IgG captured, 1:1 fit, Exp. 2
quantity: koff (s⁻¹)

binder: anti-mutCALR antibody clone 58 (antibody, human IgG1, lambda, N297A, V domains shown, human IgG1 N297A variant of clone 6) VH: EVQLVQSGAEVKKPGASVKVSCKVSGYTLTELSMQWVRQAPGKGLEWMGGFDPDEGETMYAEKFQGRLTVTEDTSTDTVYMELRSLTSEDTALYFCATSPGYDFFDYWGQGTLVTVSS VL: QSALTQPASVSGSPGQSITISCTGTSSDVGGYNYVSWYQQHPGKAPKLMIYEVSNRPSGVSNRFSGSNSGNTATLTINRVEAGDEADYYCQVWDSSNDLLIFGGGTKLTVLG
reportedResult: 0.00232

binder: anti-mutCALR antibody clone 69 (antibody, human IgG1, lambda, N297A, V domains shown, human IgG1 N297A variant of clone 6) VH: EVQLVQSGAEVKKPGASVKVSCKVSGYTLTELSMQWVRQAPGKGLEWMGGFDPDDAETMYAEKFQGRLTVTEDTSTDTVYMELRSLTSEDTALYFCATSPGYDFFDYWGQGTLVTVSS VL: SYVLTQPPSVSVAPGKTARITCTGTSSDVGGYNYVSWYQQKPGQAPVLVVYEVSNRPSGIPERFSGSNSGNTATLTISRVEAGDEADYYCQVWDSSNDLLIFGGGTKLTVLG
reportedResult: 0.00527

binder: anti-mutCALR antibody clone 174 (antibody, human IgG1, lambda, N297A, V domains shown) VH: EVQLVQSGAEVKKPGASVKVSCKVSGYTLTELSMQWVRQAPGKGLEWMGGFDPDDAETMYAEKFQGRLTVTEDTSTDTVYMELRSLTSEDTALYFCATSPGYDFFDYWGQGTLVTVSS VL: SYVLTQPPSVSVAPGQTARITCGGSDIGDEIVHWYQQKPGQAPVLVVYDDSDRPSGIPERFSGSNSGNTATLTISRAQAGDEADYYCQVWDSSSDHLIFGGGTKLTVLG
reportedResult: 0.0041
